- experimental system: S1P4 (Homo sapiens, UniProt O95977)
- Sequence (O95977 1-384): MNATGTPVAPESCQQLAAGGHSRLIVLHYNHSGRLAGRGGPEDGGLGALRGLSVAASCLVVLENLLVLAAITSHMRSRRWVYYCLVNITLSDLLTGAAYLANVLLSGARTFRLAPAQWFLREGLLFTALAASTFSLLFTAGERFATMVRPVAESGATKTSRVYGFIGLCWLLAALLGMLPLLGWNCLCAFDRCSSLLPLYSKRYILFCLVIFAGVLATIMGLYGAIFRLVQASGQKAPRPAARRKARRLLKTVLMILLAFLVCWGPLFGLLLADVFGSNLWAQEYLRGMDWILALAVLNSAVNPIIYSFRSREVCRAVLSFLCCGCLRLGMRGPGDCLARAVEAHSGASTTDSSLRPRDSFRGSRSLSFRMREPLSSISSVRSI
- assay overview: FlipR (Chem) GPCRProfiler assay, S1P4
- Assay type: cell-based
pEC50: −log10 of the molar value.
measurement label: pEC50

Examples with their reported pEC50 follow.
Cc1cc(-c2nc3cnc(Oc4cccc(Cl)c4)nc3o2)cc(C)c1OCC(=O)O [Compound A] ... < 4.52
CCc1cc(/C(C)=N/OCc2ccc(C3CCCCC3)c(C(F)(F)F)c2)ccc1CN1CC(C(=O)O)C1 [BAF-312] ... < 4.52

Input line: Read off the recorded pEC50 for CCCCCCCCc1ccc(CCC(N)(CO)CO)cc1 [Fingolimod]
Output line: 6.92

###

- experimental system: UniProtKB P21453
- assay overview: Impedance assay (CEREP), CHO
- Format: cell-based
- Design: host or cells: CHO (PathHunter)
- details: 10% FBS + 0.1% BSA
pEC50: −log10 of the molar value.
measurement label: pEC50

a = Cc1cc(-c2nc3cnc(Oc4cccc(Cl)c4)nc3o2)cc(C)c1OCC(=O)O
b = CCCCCCCCCCCCC/C=C/[C@@H](O)[C@@H](N)COP(=O)(O)O [Compound S1P, Sphingosine-1-phosphate]
Input line: For the pair a and b , which member has the lower pEC50 number? Returns: label corresponding to the selected item.
Output line: a
(a: 7.19, b: 8.82)

###

- experimental system: S1P1 (Homo sapiens)
- assay overview: PathHunter β-arrestin assay, CHO
- Assay type: cell-based
- Set-up: host or cells: CHO (PathHunter)
- details: 0.5% FBS; starred values are means of 2 separate experiments; read-out: EC50, β-arrestin, CHO
pEC50: −log10 of the molar value.
measurement label: pEC50

A = CCc1cc(/C(C)=N/OCc2ccc(C3CCCCC3)c(C(F)(F)F)c2)ccc1CN1CC(C(=O)O)C1
B = Cc1cc(-c2nc3cnc(Oc4cccc(Cl)c4)nc3o2)cc(C)c1OCC(=O)O
C = CCCCCCCCCCCCC/C=C/[C@@H](O)[C@@H](N)COP(=O)(O)O [Compound S1P, Sphingosine-1-phosphate]
Input line: Sort key: pEC50. Order: high to low. Scope: items listed above. Reply: labels, ordered per the request.
Output line: A, C, B

###

- experimental system: human ERG (ether-a-go-go related gene) potassium channel (Homo sapiens, UniProt Q12809)
- Sequence (Q12809 whole entry): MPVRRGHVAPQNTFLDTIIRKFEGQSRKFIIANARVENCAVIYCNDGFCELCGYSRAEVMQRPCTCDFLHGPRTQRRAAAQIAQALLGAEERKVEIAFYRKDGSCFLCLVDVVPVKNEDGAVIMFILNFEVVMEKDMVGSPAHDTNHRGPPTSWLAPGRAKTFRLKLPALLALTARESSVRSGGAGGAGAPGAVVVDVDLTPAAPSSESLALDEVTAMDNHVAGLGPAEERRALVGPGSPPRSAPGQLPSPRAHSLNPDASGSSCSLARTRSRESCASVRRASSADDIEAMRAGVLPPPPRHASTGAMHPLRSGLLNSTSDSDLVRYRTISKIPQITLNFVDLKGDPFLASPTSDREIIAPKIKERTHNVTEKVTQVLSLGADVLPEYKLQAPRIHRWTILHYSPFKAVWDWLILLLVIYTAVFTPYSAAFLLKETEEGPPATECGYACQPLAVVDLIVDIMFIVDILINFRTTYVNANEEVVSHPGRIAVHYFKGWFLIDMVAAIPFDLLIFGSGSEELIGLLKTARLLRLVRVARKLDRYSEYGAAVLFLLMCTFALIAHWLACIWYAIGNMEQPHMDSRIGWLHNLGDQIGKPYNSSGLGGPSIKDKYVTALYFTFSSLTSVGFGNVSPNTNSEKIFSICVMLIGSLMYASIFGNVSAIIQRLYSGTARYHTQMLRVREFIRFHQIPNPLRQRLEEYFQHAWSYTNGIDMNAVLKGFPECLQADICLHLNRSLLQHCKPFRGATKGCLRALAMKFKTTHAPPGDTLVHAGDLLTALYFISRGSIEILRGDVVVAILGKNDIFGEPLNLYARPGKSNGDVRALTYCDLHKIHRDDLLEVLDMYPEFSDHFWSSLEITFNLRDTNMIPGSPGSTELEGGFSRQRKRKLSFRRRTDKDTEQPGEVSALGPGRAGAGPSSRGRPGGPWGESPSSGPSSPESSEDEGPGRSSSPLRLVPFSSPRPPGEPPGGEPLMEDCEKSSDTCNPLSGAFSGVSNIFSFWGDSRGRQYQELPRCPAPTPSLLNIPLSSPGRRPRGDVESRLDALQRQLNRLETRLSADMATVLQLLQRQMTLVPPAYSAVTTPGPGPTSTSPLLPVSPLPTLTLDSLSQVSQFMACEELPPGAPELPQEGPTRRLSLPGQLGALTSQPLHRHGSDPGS
- assay overview: hERG assay (patch clamp, CHO cells)
measurement label: IC50

Input line: Read off the recorded IC50 for Cc1cc(-c2nc3cnc(Oc4cccc(Cl)c4)nc3o2)cc(C)c1OCC(=O)O
Output line: > 30 µM

###

- experimental system: S1P1 (Homo sapiens, UniProt P21453)
- Sequence (P21453 whole entry): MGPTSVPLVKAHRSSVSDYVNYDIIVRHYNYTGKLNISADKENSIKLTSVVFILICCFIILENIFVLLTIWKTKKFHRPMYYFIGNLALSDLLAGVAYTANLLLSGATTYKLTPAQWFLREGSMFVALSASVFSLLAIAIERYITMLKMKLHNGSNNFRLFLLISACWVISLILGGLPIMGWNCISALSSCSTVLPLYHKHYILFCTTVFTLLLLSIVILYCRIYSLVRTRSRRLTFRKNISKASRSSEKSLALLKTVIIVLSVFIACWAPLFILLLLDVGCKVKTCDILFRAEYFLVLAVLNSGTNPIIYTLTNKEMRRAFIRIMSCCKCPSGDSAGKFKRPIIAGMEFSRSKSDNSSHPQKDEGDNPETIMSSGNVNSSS
- assay overview: PathHunter activated GPCR internalization assay, CHO
- Format: cell-based
- Design: host or cells: CHO (PathHunter)
- details: 0.5% FBS; starred values are means of 2 separate experiments; read-out: EC50, Internalization, CHO
pEC50: −log10 of the molar value.
measurement label: pEC50

P = CCCCCCCCCCCCC/C=C/[C@@H](O)[C@@H](N)COP(=O)(O)O [Compound S1P, Sphingosine-1-phosphate]
Q = Cc1cc(-c2nc3cnc(Oc4cccc(Cl)c4)nc3o2)cc(C)c1OCC(=O)O
Input line: For the pair P and Q , which member has the lower pEC50 number? Returns: label corresponding to the selected item.
Output line: Q
(Q: 6.67, P: 7.32)
